Data credit: paper PMC12748989

Test system: PBMC
Condition Parameters: 12.5 µM
Attribute Measured: Average (percentage cell inhibition), Mastoparan PBMC (%)
Express your answer in %, writing the number without its unit.

Field: example entries. Status: answers known.
>  <Molecule>
CC[C@H](C)[C@H](N)C(=O)N[C@@H](CC(N)=O)C(=O)N[C@@H](CC(C)C)C(=O)N[C@@H](CCCCN)C(=O)N[C@@H](C)C(=O)N[C@@H](CC(C)C)C(=O)NCC(=O)N[C@@H](C)C(=O)N[C@@H](CC(C)C)C(=O)N[C@@H](C)C(=O)N[C@@H](CCCCN)C(=O)N[C@@H](CCCCN)C(=O)N[C@H](C(=O)N[C@@H](CC(C)C)C(N)=O)[C@@H](C)CC [G7]

>  <Experimental Result>
11.7718

$$$$
>  <Molecule>
CC[C@H](C)[C@H](N)C(=O)N[C@@H](CC(N)=O)C(=O)N[C@@H](CC(C)C)C(=O)N[C@@H](CCCCN)C(=O)N[C@@H](C)C(=O)N[C@@H](CC(C)C)C(=O)N1CCC[C@H]1C(=O)N[C@@H](C)C(=O)N[C@@H](CC(C)C)C(=O)N[C@@H](C)C(=O)N[C@@H](CCCCN)C(=O)N[C@@H](CCCCN)C(=O)N[C@H](C(=O)N[C@@H](CC(C)C)C(N)=O)[C@@H](C)CC [P7]

>  <Experimental Result>
-9.322

$$$$

Next molecule, please.
## Task Look up and report measured Average (percentage cell inhibition), Mastoparan PBMC (PBMC) for the following molecule: CC[C@H](C)[C@H](NC(=O)[C@H](CCCCN)NC(=O)[C@H](CCCCN)NC(=O)[C@H](C)NC(=O)[C@H](CC(C)C)NC(=O)[C@H](C)NC(=O)[C@H](C)NC(=O)[C@H](CC(C)C)NC(=O)[C@H](C)NC(=O)[C@H](CCCCN)NC(=O)[C@H](CC(C)C)NC(=O)[C@H](CC(N)=O)NC(=O)[C@@H](N)CCCNC(=N)N)C(=O)N[C@@H](CC(C)C)C(N)=O [R1]
## Result -2.103

---

Test system: PBMC
Condition Parameters: 12.5 µM
Entries and their Average (percentage cell inhibition), Mastoparan PBMC values follow.
Dear colleague, please return just the value in %, with no unit written.

>  <Substance Smiles>
CC[C@H](C)[C@H](N)C(=O)N[C@@H](CC(N)=O)C(=O)N[C@@H](CC(C)C)C(=O)N[C@H](C(=O)N[C@@H](C)C(=O)N[C@@H](CC(C)C)C(=O)N[C@@H](C)C(=O)N[C@@H](C)C(=O)N[C@@H](CC(C)C)C(=O)N[C@@H](C)C(=O)N[C@@H](CCCCN)C(=O)N[C@@H](CCCCN)C(=O)N[C@H](C(=O)N[C@@H](CC(C)C)C(N)=O)[C@@H](C)CC)C(C)C

>  <Study System>
PBMC

>  <Unit Of Measure>
%

>  <Experimental Result>
3.317

$$$$
>  <Substance Smiles>
CC[C@H](C)[C@H](N)C(=O)N[C@@H](CC(N)=O)C(=O)N[C@@H](CC(C)C)C(=O)N[C@@H](CCCCN)C(=O)N[C@@H](C)C(=O)N[C@@H](CC(C)C)C(=O)N[C@@H](C)C(=O)N[C@@H](C)C(=O)N[C@@H](CC(C)C)C(=O)N[C@@H](C)C(=O)N[C@H](C(=O)N[C@@H](CCCCN)C(=O)N[C@H](C(=O)N[C@@H](CC(C)C)C(N)=O)[C@@H](C)CC)C(C)C

>  <Study System>
PBMC

>  <Unit Of Measure>
%

>  <Experimental Result>
14.2972

$$$$
>  <Substance Smiles>
CC[C@H](C)[C@H](NC(=O)[C@H](CCCCN)NC(=O)[C@H](CCCCN)NC(=O)[C@H](C)NC(=O)[C@H](CC(C)C)NC(=O)[C@H](C)NC(=O)[C@H](C)NC(=O)[C@H](CC(C)C)NC(=O)[C@H](C)NC(=O)[C@H](CCCCN)NC(=O)[C@H](CC(C)C)NC(=O)[C@H](CC(N)=O)NC(=O)[C@@H](N)Cc1ccc(O)cc1)C(=O)N[C@@H](CC(C)C)C(N)=O

>  <Study System>
PBMC

>  <Unit Of Measure>
%

>  <Experimental Result>
14.8394

$$$$
>  <Substance Smiles>
CC[C@H](C)[C@H](N)C(=O)N[C@@H](CC(N)=O)C(=O)N[C@@H](CC(C)C)C(=O)N[C@@H](CCCCN)C(=O)N[C@@H](C)C(=O)N[C@@H](CC(C)C)C(=O)N[C@@H](C)C(=O)N[C@@H](CCCNC(=N)N)C(=O)N[C@@H](CC(C)C)C(=O)N[C@@H](C)C(=O)N[C@@H](CCCCN)C(=O)N[C@@H](CCCCN)C(=O)N[C@H](C(=O)N[C@@H](CC(C)C)C(N)=O)[C@@H](C)CC

>  <Study System>
PBMC

>  <Unit Of Measure>
%

>  <Experimental Result>
4.899

$$$$

Now let's try a different one.
## Task Report Average (percentage cell inhibition), Mastoparan PBMC, nothing else, for this compound: "CC[C@H](C)[C@H](N)C(=O)N[C@@H](CC(N)=O)C(=O)N[C@@H](CC(C)C)C(=O)N[C@@H](CCCCN)C(=O)N[C@@H](C)C(=O)N[C@@H](CC(C)C)C(=O)N[C@@H](C)C(=O)N[C@@H](C)C(=O)N[C@@H](CC(C)C)C(=O)N[C@@H](C)C(=O)N[C@@H](CCCCN)C(=O)N[C@@H](CCCCN)C(=O)N[C@@H](C)C(=O)N[C@@H](CC(C)C)C(N)=O"
## Result 5.573

---

Test system: MDA-MB-231 cells
compounds and their reported Average (percentage cell inhibition), Dmastoparan MDA-MB231 12.5uM
Provide only the numeric value, understood in %.

// below: answered compounds
>  <Compound>
CC[C@H](C)[C@H](N)C(=O)N[C@@H](CC(N)=O)C(=O)N[C@H](C(=O)N[C@@H](CCCCN)C(=O)N[C@@H](C)C(=O)N[C@@H](CC(C)C)C(=O)N[C@@H](C)C(=O)N[C@@H](C)C(=O)N[C@@H](CC(C)C)C(=O)N[C@@H](C)C(=O)N[C@@H](CCCCN)C(=O)N[C@@H](CCCCN)C(=O)N[C@H](C(=O)N[C@@H](CC(C)C)C(N)=O)[C@@H](C)CC)[C@@H](C)CC [I3]

>  <Unit Of Measure>
%

>  <Experimental Result>
30.5933

$$$$
>  <Compound>
CC[C@H](C)[C@H](N)C(=O)N[C@@H](CC(N)=O)C(=O)N[C@@H](CC(C)C)C(=O)N[C@@H](CCCCN)C(=O)N[C@@H](C)C(=O)N[C@@H](CC(C)C)C(=O)N[C@@H](C)C(=O)N[C@@H](C)C(=O)N[C@@H](CC(C)C)C(=O)N[C@@H](CO)C(=O)N[C@@H](CCCCN)C(=O)N[C@@H](CCCCN)C(=O)N[C@H](C(=O)N[C@@H](CC(C)C)C(N)=O)[C@@H](C)CC [S10]

>  <Unit Of Measure>
%

>  <Experimental Result>
30.5653

$$$$

## Task Would you please give the reported Average (percentage cell inhibition), Dmastoparan MDA-MB231 12.5uM of CC[C@H](C)[C@H](N)C(=O)N[C@@H](CC(N)=O)C(=O)N[C@@H](CC(C)C)C(=O)N[C@@H](CCCCN)C(=O)N[C@@H](C)C(=O)N[C@@H](CC(C)C)C(=O)N[C@H](C(=O)N[C@@H](C)C(=O)N[C@@H](CC(C)C)C(=O)N[C@@H](C)C(=O)N[C@@H](CCCCN)C(=O)N[C@@H](CCCCN)C(=O)N[C@H](C(=O)N[C@@H](CC(C)C)C(N)=O)[C@@H](C)CC)[C@@H](C)O [T7] with MDA-MB-231 cells?
## Result 29.9324

---

System: PBMC
Condition Parameters: 12.5 µM
Readings of Average (percentage cell inhibition), Mastoparan PBMC for the listed molecules
# value in %; strip the unit string

>  <Molecule>
CC[C@H](C)[C@H](N)C(=O)N[C@@H](CC(N)=O)C(=O)N[C@@H](CC(C)C)C(=O)N[C@@H](CCCCN)C(=O)N[C@@H](C)C(=O)N[C@@H](CC(C)C)C(=O)N[C@@H](C)C(=O)N[C@@H](C)C(=O)N[C@@H](CC(C)C)C(=O)N[C@@H](C)C(=O)N[C@@H](CCCCN)C(=O)N[C@@H](CCCCN)C(=O)N[C@H](C(=O)N[C@@H](CCCCN)C(N)=O)[C@@H](C)CC [K14]

>  <Unit Of Measure>
%

>  <Experimental Result>
6.4564

$$$$
>  <Molecule>
CC[C@H](C)[C@H](N)C(=O)N[C@@H](CC(N)=O)C(=O)N[C@@H](CCC(=O)O)C(=O)N[C@@H](CCCCN)C(=O)N[C@@H](C)C(=O)N[C@@H](CC(C)C)C(=O)N[C@@H](C)C(=O)N[C@@H](C)C(=O)N[C@@H](CC(C)C)C(=O)N[C@@H](C)C(=O)N[C@@H](CCCCN)C(=O)N[C@@H](CCCCN)C(=O)N[C@H](C(=O)N[C@@H](CC(C)C)C(N)=O)[C@@H](C)CC [E3]

>  <Unit Of Measure>
%

>  <Experimental Result>
5.899

$$$$
>  <Molecule>
CC[C@H](C)[C@H](N)C(=O)N[C@@H](CC(N)=O)C(=O)N[C@@H](CC(C)C)C(=O)N[C@@H](CCCCN)C(=O)N[C@@H](C)C(=O)N[C@@H](CC(C)C)C(=O)N[C@@H](C)C(=O)N[C@@H](C)C(=O)N[C@@H](CC(C)C)C(=O)N[C@@H](C)C(=O)N[C@@H](CC(N)=O)C(=O)N[C@@H](CCCCN)C(=O)N[C@H](C(=O)N[C@@H](CC(C)C)C(N)=O)[C@@H](C)CC [N11]

>  <Unit Of Measure>
%

>  <Experimental Result>
4.624

$$$$
>  <Molecule>
CC[C@H](C)[C@H](N)C(=O)N[C@@H](CC(N)=O)C(=O)N[C@@H](CC(C)C)C(=O)N[C@@H](CCCCN)C(=O)N[C@@H](C)C(=O)N[C@@H](CC(C)C)C(=O)N[C@@H](CO)C(=O)N[C@@H](C)C(=O)N[C@@H](CC(C)C)C(=O)N[C@@H](C)C(=O)N[C@@H](CCCCN)C(=O)N[C@@H](CCCCN)C(=O)N[C@H](C(=O)N[C@@H](CC(C)C)C(N)=O)[C@@H](C)CC [S7]

>  <Unit Of Measure>
%

>  <Experimental Result>
-4.112

$$$$
>  <Molecule>
CC[C@H](C)[C@H](N)C(=O)N[C@@H](CC(N)=O)C(=O)N[C@@H](CC(C)C)C(=O)N[C@@H](CCCCN)C(=O)N[C@@H](CCC(N)=O)C(=O)N[C@@H](CC(C)C)C(=O)N[C@@H](C)C(=O)N[C@@H](C)C(=O)N[C@@H](CC(C)C)C(=O)N[C@@H](C)C(=O)N[C@@H](CCCCN)C(=O)N[C@@H](CCCCN)C(=O)N[C@H](C(=O)N[C@@H](CC(C)C)C(N)=O)[C@@H](C)CC [Q5]

>  <Unit Of Measure>
%

>  <Experimental Result>
0.7115

$$$$
>  <Molecule>
CC[C@H](C)[C@H](N)C(=O)N[C@@H](CC(N)=O)C(=O)N[C@@H](CCCNC(=N)N)C(=O)N[C@@H](CCCCN)C(=O)N[C@@H](C)C(=O)N[C@@H](CC(C)C)C(=O)N[C@@H](C)C(=O)N[C@@H](C)C(=O)N[C@@H](CC(C)C)C(=O)N[C@@H](C)C(=O)N[C@@H](CCCCN)C(=O)N[C@@H](CCCCN)C(=O)N[C@H](C(=O)N[C@@H](CC(C)C)C(N)=O)[C@@H](C)CC [R3]

>  <Unit Of Measure>
%

>  <Experimental Result>
-2.846

$$$$

## Task Provide Average (percentage cell inhibition), Mastoparan PBMC value for the following molecule: CC[C@H](C)[C@H](N)C(=O)N[C@@H](CC(N)=O)C(=O)N[C@@H](CC(C)C)C(=O)N[C@@H](CCCCN)C(=O)N[C@@H](C)C(=O)N[C@@H](CC(C)C)C(=O)N[C@@H](C)C(=O)N[C@@H](C)C(=O)N[C@@H](CC(C)C)C(=O)N[C@@H](C)C(=O)N[C@@H](CCCCN)C(=O)N[C@@H](CCCCN)C(=O)N[C@H](C(=O)N[C@@H](CCCNC(=N)N)C(N)=O)[C@@H](C)CC [R14]
## Result -1.726

## Task Specify Average (percentage cell inhibition), Mastoparan PBMC for CC[C@H](C)[C@H](N)C(=O)N[C@@H](CC(N)=O)C(=O)N[C@@H](CC(C)C)C(=O)N[C@@H](CCCCN)C(=O)N[C@@H](C)C(=O)N[C@@H](CC(C)C)C(=O)N[C@@H](C)C(=O)N[C@@H](C)C(=O)N[C@@H](CC(C)C)C(=O)N[C@@H](C)C(=O)N[C@H](C(=O)N[C@@H](CCCCN)C(=O)N[C@H](C(=O)N[C@@H](CC(C)C)C(N)=O)[C@@H](C)CC)[C@@H](C)CC [I11] and stop.
## Result 5.295

## Task Report Average (percentage cell inhibition), Mastoparan PBMC for CC[C@H](C)[C@H](N)C(=O)N[C@@H](CC(N)=O)C(=O)N[C@@H](CC(C)C)C(=O)N[C@@H](CCCCN)C(=O)N[C@@H](C)C(=O)N[C@@H](CC(C)C)C(=O)N[C@@H](C)C(=O)N[C@@H](C)C(=O)N[C@@H](CC(N)=O)C(=O)N[C@@H](C)C(=O)N[C@@H](CCCCN)C(=O)N[C@@H](CCCCN)C(=O)N[C@H](C(=O)N[C@@H](CC(C)C)C(N)=O)[C@@H](C)CC [N9]
## Result 3.083
